# system tested: USP7 (Homo sapiens, UniProt Q93009)
# Sequence (Q93009 whole entry): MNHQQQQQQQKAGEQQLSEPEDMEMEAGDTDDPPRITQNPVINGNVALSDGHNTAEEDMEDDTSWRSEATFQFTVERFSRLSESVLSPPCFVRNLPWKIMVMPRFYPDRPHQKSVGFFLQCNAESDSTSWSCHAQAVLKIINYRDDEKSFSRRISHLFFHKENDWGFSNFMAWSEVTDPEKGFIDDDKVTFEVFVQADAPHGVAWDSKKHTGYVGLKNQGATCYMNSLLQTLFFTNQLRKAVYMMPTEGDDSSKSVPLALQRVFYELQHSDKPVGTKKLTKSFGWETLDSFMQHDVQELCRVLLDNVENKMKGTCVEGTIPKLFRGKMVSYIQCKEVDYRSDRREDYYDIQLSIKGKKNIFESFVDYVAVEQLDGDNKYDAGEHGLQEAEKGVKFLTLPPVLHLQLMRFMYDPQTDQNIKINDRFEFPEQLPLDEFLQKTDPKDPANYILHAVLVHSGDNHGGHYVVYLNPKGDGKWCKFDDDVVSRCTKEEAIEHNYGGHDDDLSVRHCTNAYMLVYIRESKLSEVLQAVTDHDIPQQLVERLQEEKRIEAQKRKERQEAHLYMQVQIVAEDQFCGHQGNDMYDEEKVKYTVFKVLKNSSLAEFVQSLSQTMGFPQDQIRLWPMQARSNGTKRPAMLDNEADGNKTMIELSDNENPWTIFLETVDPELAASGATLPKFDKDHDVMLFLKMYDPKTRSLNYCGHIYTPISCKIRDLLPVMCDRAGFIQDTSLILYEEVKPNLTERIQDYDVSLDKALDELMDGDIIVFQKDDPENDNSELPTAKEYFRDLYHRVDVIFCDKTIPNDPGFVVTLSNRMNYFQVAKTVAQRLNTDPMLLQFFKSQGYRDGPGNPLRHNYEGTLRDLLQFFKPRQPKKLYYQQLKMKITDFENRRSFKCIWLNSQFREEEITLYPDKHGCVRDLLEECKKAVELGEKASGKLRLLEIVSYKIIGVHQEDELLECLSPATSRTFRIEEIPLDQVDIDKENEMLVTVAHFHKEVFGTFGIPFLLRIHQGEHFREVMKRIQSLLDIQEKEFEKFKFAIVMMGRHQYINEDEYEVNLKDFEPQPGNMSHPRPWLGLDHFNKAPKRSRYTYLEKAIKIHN
# method description: Ub-PLA2 / NBD C6-HPC coupled fluorescence isopeptidase assay
# Type: biochemical

>  <compound>
CCN1C(=O)C=CC1=O [N‐Ethylmaleimide]

>  <unit abbreviation>
mM

>  <EC50>
1.4

$$$$

====

# system tested: SENP2 (Homo sapiens)
# method description: SUMO3-PLA2 / NBD C6-HPC coupled fluorescence isopeptidase assay
# Format: biochemical

>  <compound>
CCN1C(=O)C=CC1=O [N‐Ethylmaleimide]

>  <EC50 (µM)>
1300

$$$$

====

# system tested: USP7 (Homo sapiens, UniProt Q93009)
# Type: biochemical
pEC50: −log10 of the molar value.
measured parameter: pEC50

>  <molecule>
Cc1ccc(/C=C2\CNC/C(=C\c3ccc(C)cc3)C2=O)cc1 [NSC 632839]

>  <measured parameter>
pEC50

>  <readout number>
4.43

$$$$

====

# system tested: SENP2 (Homo sapiens, UniProt Q9HC62)
# Sequence (Q9HC62 366-589): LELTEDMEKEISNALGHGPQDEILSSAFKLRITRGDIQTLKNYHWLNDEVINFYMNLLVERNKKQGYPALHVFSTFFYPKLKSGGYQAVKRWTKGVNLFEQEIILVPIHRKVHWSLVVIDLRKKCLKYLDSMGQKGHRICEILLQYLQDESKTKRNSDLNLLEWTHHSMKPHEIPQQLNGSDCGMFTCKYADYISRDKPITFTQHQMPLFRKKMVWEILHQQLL
# Type: biochemical

>  <smiles input>
Cc1ccc(/C=C2\CNC/C(=C\c3ccc(C)cc3)C2=O)cc1

>  <unit abbreviation>
µM

>  <EC50>
9.8

$$$$
